- Tested on: NRG-mice bearing LNCaP tumors
- protocolSummary: Biodistribution (and PET/SPECT imaging) in NRG-mice bearing LNCaP tumors
- Assay type: in vivo
- runConditions: 3 h p.i., Avg
*1 amine or outer side, *2 acyl side, *3 side chain or, on linkers, in order; H or OH if unused. Where a SMILES comes first, the peptide text is derived from it. [ ]: non-standard residue; d: D form. The star is where a group is joined. ξ: configuration not given here. Butanoyl(4-(4-NO2Ph)) = O=C(CCCc1ccc([N+](=O)[O-])cc1)*; DOTA = O=C(O)CN1CCN(CC(=O)O)CCN(CC(=O)*)CCN(CC(=O)O)CC1; ξAla(9-anthryl) = NC(Cc1c2ccccc2cc2ccccc12)C(=O)O; X2 = O=C(NC(CCCCN*)C(=O)O)NC(CC(F)C(=O)O)C(=O)O; X1 = O=C(C1CCC(CN[*:1])CC1)[*:2]; ξK = NCCCCC(N)C(=O)O
measuredQuantity: Biodistribution: kidney (% ID/g)

compound: O=C([O-])CN1CCN(CC(=O)[O-])CCN(CC(=O)NCCCCC(NC(=O)CNC(=O)CCCc2ccc([N+](=O)[O-])cc2)C(=O)NCC(=O)NCC2CCC(C(=O)NC(Cc3c4ccccc4cc4ccccc34)C(=O)NCCCCC(NC(=O)NC(CC(F)C(=O)O)C(=O)O)C(=O)O)CC2)CCN(CC(=O)[O-])CC1.[68Ga+3] (stereo not drawn) [^68Ga-CCZ02025] ({Butanoyl(4-(4-NO2Ph))}-G[ξK](DOTA)G[X1][ξAla(9-anthryl)]-X2)
measuredQuantity: Biodistribution: kidney
endpointResult: 9.90

compound: COc1ccc(CCCC(=O)NCC(=O)NC(CCCCNC(=O)CN2CCN(CC(=O)[O-])CCN(CC(=O)[O-])CCN(CC(=O)[O-])CC2)CC(=O)NCC2CCC(C(=O)NC(Cc3c4ccccc4cc4ccccc34)C(=O)NCCCCC(NC(=O)NC(CCCC(=O)O)C(=O)O)C(=O)O)CC2)cc1.[68Ga+3] (stereo not drawn) [^68Ga-CCZ02015]
measuredQuantity: Biodistribution: kidney
endpointResult: 10.94

compound: COc1ccc(CCCC(=O)NCC(=O)NC(CCCCNC(=O)CN2CCN(CC(=O)[O-])CCN(CC(=O)[O-])CCN(CC(=O)[O-])CC2)CC(=O)NCC2CCC(C(=O)NC(Cc3c4ccccc4cc4ccccc34)C(=O)NCCCCC(NC(=O)NC(CC(F)C(=O)O)C(=O)O)C(=O)O)CC2)cc1.[177Lu+3] (stereo not drawn) [^177Lu-CCZ02019]
measuredQuantity: Biodistribution: kidney
endpointResult: 10.42
